# Assay overview: in vivo
# Experimental conditions: BALB/c nude, mouse, in vivo, iv, total radioactivity, uptake Spleen
Measurement type: tissue uptake at 24 h (%ID/g)
A number alone suffices; assume %ID/g.

Query block: So what does the record say about tissue uptake at 24 h for C[C@@H](O)[C@H](NC(=O)[C@@H]1CSSC[C@H](NC(=O)[C@@H](Cc2ccccc2)NC(=O)COCCOCCNC(=O)[C@H](CCCCNC(=O)c2cccc(NC(=O)N[C@@H]3CN(C4CCCCC4)c4ccccc4N(CC(=O)C(C)(C)C)C3=O)c2)NC(=O)COCCOCCNC(=O)CN2CCN(CC(=O)O)CCN(CC(=O)O)CCN(CC(=O)O)CC2)C(=O)N[C@@H](Cc2ccc(O)cc2)C(=O)N[C@H](Cc2c[nH]c3ccccc23)C(=O)N[C@@H](CCCCN)C(=O)N[C@@H]([C@@H](C)O)C(=O)N1)C(=O)O [Compound I-52, DOTA-OEG-K(Z360)-OEG-f[CYwKTC]T-OH] ?
Result block: 0.3

* * *

# Assay overview: in vivo
# Experimental conditions: BALB/c nude, mouse, in vivo, iv, total radioactivity, % ID/g Muscle
Quick reference: tissue uptake at 4 h of the listed items.
A number alone suffices; assume %ID/g.

Query block: So what does the record say about tissue uptake at 4 h for C[C@@H](O)[C@H](NC(=O)[C@@H]1CSSC[C@H](NC(=O)[C@@H](Cc2ccccc2)NC(=O)COCCOCCNC(=O)COCCOCCNC(=O)[C@H](CCCCNC(=O)c2cccc(NC(=O)N[C@@H]3CN(C4CCCCC4)c4ccccc4N(CC(=O)C(C)(C)C)C3=O)c2)NC(=O)CN2CCN(CC(=O)O)CCN(CC(=O)O)CCN(CC(=O)O)CC2)C(=O)N[C@@H](Cc2ccc(O)cc2)C(=O)N[C@H](Cc2c[nH]c3ccccc23)C(=O)N[C@@H](CCCCN)C(=O)N[C@@H]([C@@H](C)O)C(=O)N1)C(=O)O [Compound 177Lu-I-39, metal not drawn] ?
Result block: 0.3

Query block: So what does the record say about tissue uptake at 4 h for C[C@@H](O)[C@H](NC(=O)[C@@H]1CSSC[C@H](NC(=O)[C@@H](Cc2ccccc2)NC(=O)[C@H](CCCCNC(=O)COCCOCCNC(=O)c2cccc(NC(=O)N[C@@H]3CN(C4CCCCC4)c4ccccc4N(CC(=O)C(C)(C)C)C3=O)c2)NC(=O)CN2CCN(CC(=O)O)CCN(CC(=O)O)CCN(CC(=O)O)CC2)C(=O)N[C@@H](Cc2ccc(O)cc2)C(=O)N[C@H](Cc2c[nH]c3ccccc23)C(=O)N[C@@H](CCCCN)C(=O)N[C@@H]([C@@H](C)O)C(=O)N1)C(=O)O [^177Lu-I-36, metal not drawn] ?
Result block: 0.41

* * *

# Assay overview: in vivo
# Experimental conditions: BALB/c nude, mouse, in vivo, iv, total radioactivity, % ID/g Heart
Quick reference: tissue uptake at 4 h of the listed items.

For orientation, consider the following solved cases.
Compound	Observed measurement
CC(C)(C)C(=O)CN1C(=O)[C@H](NC(=O)Nc2cccc(C(=O)N[C@@H](CCC(=O)N[C@@H](CCC(=O)N[C@@H](CCC(=O)N[C@@H](CCCCNC(=O)COCCOCCNC(=O)COCCOCCNC(=O)CCC(C(=O)O)N3CCN(CC(=O)O)CCN(CC(=O)O)CCN(CC(=O)O)CC3)C(N)=O)C(=O)O)C(=O)O)C(=O)O)c2)CN(C2CCCCC2)c2ccccc21 (stereo partly drawn) [^177Lu-C-4, metal not drawn, reference compound]	0.07 %ID/g
C[C@@H](O)[C@H](NC(=O)[C@@H]1CSSC[C@H](NC(=O)[C@@H](Cc2ccccc2)NC(=O)[C@H](CCCCNC(=O)c2cccc(NC(=O)N[C@@H]3CN(C4CCCCC4)c4ccccc4N(CC(=O)C(C)(C)C)C3=O)c2)NC(=O)COCCOCCNC(=O)CN2CCN(CC(=O)O)CCN(CC(=O)O)CCN(CC(=O)O)CC2)C(=O)N[C@@H](Cc2ccc(O)cc2)C(=O)N[C@H](Cc2c[nH]c3ccccc23)C(=O)N[C@@H](CCCCN)C(=O)N[C@@H]([C@@H](C)O)C(=O)N1)C(=O)O [^177Lu-I-35, metal not drawn]	1.26 %ID/g
CCCC[C@H](NC(=O)[C@H](Cc1c[nH]c2ccccc12)NC(=O)CNC(=O)[C@H](Cc1ccc(O)cc1)NC(=O)[C@H](C)NC(=O)[C@@H](CCC(=O)O)NC(=O)[C@@H](CCC(=O)O)NC(=O)[C@@H](CCC(=O)O)NC(=O)[C@@H](CCC(=O)O)NC(=O)[C@@H](CCC(=O)O)NC(=O)[C@@H](CCC(=O)O)NC(=O)CN1CCN(CC(=O)O)CCN(CC(=O)O)CCN(CC(=O)O)CC1)C(=O)N[C@@H](CC(=O)O)C(=O)N[C@@H](Cc1ccccc1)C(N)=O [^177Lu-C-2, metal not drawn, reference compound]	0.05 %ID/g

Query block: So what does the record say about tissue uptake at 4 h for C[C@@H](O)[C@H](NC(=O)[C@@H]1CSSC[C@H](NC(=O)[C@@H](Cc2ccccc2)NC(=O)COCCOCCNC(=O)[C@H](CCCCNC(=O)c2cccc(NC(=O)N[C@@H]3CN(C4CCCCC4)c4ccccc4N(CC(=O)C(C)(C)C)C3=O)c2)NC(=O)CN2CCN(CC(=O)O)CCN(CC(=O)O)CCN(CC(=O)O)CC2)C(=O)N[C@@H](Cc2ccc(O)cc2)C(=O)N[C@H](Cc2c[nH]c3ccccc23)C(=O)N[C@@H](CCCCN)C(=O)N[C@@H]([C@@H](C)O)C(=O)N1)C(=O)O [Compound 177Lu-I-37, metal not drawn] ?
Result block: 1.12 %ID/g

Query block: So what does the record say about tissue uptake at 4 h for C[C@@H](O)[C@H](NC(=O)[C@@H]1CSSC[C@H](NC(=O)[C@@H](Cc2ccccc2)NC(=O)CN2CCN(CC(=O)O)CCN(CC(=O)O)CCN(CC(=O)O)CC2)C(=O)N[C@@H](Cc2ccc(O)cc2)C(=O)N[C@H](Cc2c[nH]c3ccccc23)C(=O)N[C@@H](CCCCN)C(=O)N[C@@H]([C@@H](C)O)C(=O)N1)C(=O)O [^177Lu-C-1, metal not drawn, reference compound] ?
Result block: 0.06 %ID/g

Query block: So what does the record say about tissue uptake at 4 h for C[C@@H](O)[C@H](NC(=O)[C@@H]1CSSC[C@H](NC(=O)[C@@H](Cc2ccccc2)NC(=O)[C@H](CCCCNC(=O)COCCOCCNC(=O)c2cccc(NC(=O)N[C@@H]3CN(C4CCCCC4)c4ccccc4N(CC(=O)C(C)(C)C)C3=O)c2)NC(=O)CN2CCN(CC(=O)O)CCN(CC(=O)O)CCN(CC(=O)O)CC2)C(=O)N[C@@H](Cc2ccc(O)cc2)C(=O)N[C@H](Cc2c[nH]c3ccccc23)C(=O)N[C@@H](CCCCN)C(=O)N[C@@H]([C@@H](C)O)C(=O)N1)C(=O)O [^177Lu-I-36, metal not drawn] ?
Result block: 1.36 %ID/g

* * *

# Assay overview: in vivo
# Experimental conditions: BALB/c nude, mouse, in vivo, iv, total radioactivity, T/L Tumor/Liver ratio
Label F if tissue to tissue ratio at 24 h falls below 8; label T in every other case.

A selection of reference data follows.
Compound	Label
C[C@@H](O)[C@H](NC(=O)[C@@H]1CSSC[C@H](NC(=O)[C@@H](Cc2ccccc2)NC(=O)CCOCCOCCOCCNC(=O)[C@H](CCCCNC(=O)c2cccc(NC(=O)N[C@@H]3CN(C4CCCCC4)c4ccccc4N(CC(=O)C(C)(C)C)C3=O)c2)NC(=O)CN2CCN(CC(=O)O)CCN(CC(=O)O)CCN(CC(=O)O)CC2)C(=O)N[C@@H](Cc2ccc(O)cc2)C(=O)N[C@H](Cc2c[nH]c3ccccc23)C(=O)N[C@@H](CCCCN)C(=O)N[C@@H]([C@@H](C)O)C(=O)N1)C(=O)O [Compound I-38, DOTA-K(Z360)-PEG3-f[CYwKTC]T-OH]	F
C[C@@H](O)[C@H](NC(=O)[C@@H]1CSSC[C@H](NC(=O)[C@@H](Cc2ccccc2)NC(=O)COCCOCCNC(=O)[C@H](CCCCNC(=O)[C@H](CCC(=O)O)NC(=O)c2cccc(NC(=O)N[C@@H]3CN(C4CCCCC4)c4ccccc4N(CC(=O)C(C)(C)C)C3=O)c2)NC(=O)CN2CCN(CC(=O)O)CCN(CC(=O)O)CCN(CC(=O)O)CC2)C(=O)N[C@@H](Cc2ccc(O)cc2)C(=O)N[C@H](Cc2c[nH]c3ccccc23)C(=O)N[C@@H](CCCCN)C(=O)N[C@@H]([C@@H](C)O)C(=O)N1)C(=O)O [Compound I-27, DOTA-K(-E-Z360)-OEG-f[CYwKTC]T-OH]	T
C[C@@H](O)[C@H](NC(=O)[C@@H]1CSSC[C@H](NC(=O)[C@@H](Cc2ccccc2)NC(=O)[C@H](CCCCNC(=O)c2cccc(NC(=O)N[C@@H]3CN(C4CCCCC4)c4ccccc4N(CC(=O)C(C)(C)C)C3=O)c2)NC(=O)CCOCCOCCOCCNC(=O)CN2CCN(CC(=O)O)CCN(CC(=O)O)CCN(CC(=O)O)CC2)C(=O)N[C@@H](Cc2ccc(O)cc2)C(=O)N[C@H](Cc2c[nH]c3ccccc23)C(=O)N[C@@H](CCCCN)C(=O)N[C@@H]([C@@H](C)O)C(=O)N1)C(=O)O [Compound I-48, DOTA-PEG3-K(Z360)-f[CYwKTC]T-OH]	F
C[C@@H](O)[C@H](NC(=O)[C@@H]1CSSC[C@H](NC(=O)[C@@H](Cc2ccccc2)NC(=O)[C@H](CCCCNC(=O)c2cccc(NC(=O)N[C@@H]3CN(C4CCCCC4)c4ccccc4N(CC(=O)C(C)(C)C)C3=O)c2)NC(=O)COCCOCCNC(=O)CN2CCN(CC(=O)O)CCN(CC(=O)O)CCN(CC(=O)O)CC2)C(=O)N[C@@H](Cc2ccc(O)cc2)C(=O)N[C@H](Cc2c[nH]c3ccccc23)C(=O)N[C@@H](CCCCN)C(=O)N[C@@H]([C@@H](C)O)C(=O)N1)C(=O)O [Compound I-35, DOTA-OEG-K(Z360)-f[CYwKTC]T-OH]	F
C[C@@H](O)[C@H](NC(=O)[C@@H]1CSSC[C@H](NC(=O)[C@@H](Cc2ccccc2)NC(=O)[C@H](CCCCNC(=O)CC[C@H](NC(=O)CNC(=O)c2cccc(NC(=O)N[C@@H]3CN(C4CCCCC4)c4ccccc4N(CC(=O)C(C)(C)C)C3=O)c2)C(=O)O)NC(=O)COCCOCCNC(=O)CCC(C(=O)O)N2CCN(CC(=O)O)CCN(CC(=O)O)CCN(CC(=O)O)CC2)C(=O)N[C@@H](Cc2ccc(O)cc2)C(=O)N[C@H](Cc2c[nH]c3ccccc23)C(=O)N[C@@H](CCCCN)C(=O)N[C@@H]([C@@H](C)O)C(=O)N1)C(=O)O (stereo partly drawn) [Compound I-19]	T

Now turn to the next compound.
Query block: Reported tissue to tissue ratio at 24 h reaches at least 8 for C[C@@H](O)[C@H](NC(=O)[C@@H]1CSSC[C@H](NC(=O)[C@@H](Cc2ccccc2)NC(=O)[C@H](CCCCNC(=O)c2cccc(NC(=O)N[C@@H]3CN(C4CCCCC4)c4ccccc4N(CC(=O)C(C)(C)C)C3=O)c2)NC(=O)COCCOCCNC(=O)COCCOCCNC(=O)CN2CCN(CC(=O)O)CCN(CC(=O)O)CCN(CC(=O)O)CC2)C(=O)N[C@@H](Cc2ccc(O)cc2)C(=O)N[C@H](Cc2c[nH]c3ccccc23)C(=O)N[C@@H](CCCCN)C(=O)N[C@@H]([C@@H](C)O)C(=O)N1)C(=O)O [Compound I-41, DOTA-OEG-OEG-K(Z360)-f[CYwKTC]T-OH] ?
Result block: T
